Hey, just so you know, these numbers are from patent US20240109912A1.

Test system: RNA polymerase II Serine 5 phosphorylation in A549 cells overexpressing CDK7 mutant (C312S)
Experiment: Imaging-based cellular RNA PolII Ser5 phosphorylation assay in A549 cells overexpressing CDK7-mutant (C312S)
Type: cell-based, human
Conditions: Homo sapiens, A549, A549 cells overexpressing CDK7 mutant (C312S); read-out: CDK7_ A549 mutant hCDK7(pIC50) (converted)
quantity kind: IC50

>  <compound>
[2H]C([2H])([2H])C#CC(=O)N1CC[C@H](N2CC(c3cc(C)c4c(c3)Nc3ncnc(N5CCS(=O)(=O)CC5)c3[C@@H](C)O4)C2)C1 (single isomer, unassigned)

>  <IC50>
> 10 µM

$$$$
>  <compound>
C=CC(=O)N1CC(N2CC(c3cc(C)c4c(c3)Nc3ncnc(N5CCOCC5)c3C(C)O4)C2)C1 (stereo not drawn)

>  <IC50>
> 10 µM

$$$$
>  <compound>
C=CC(=O)N1CC[C@H](N2CCC(c3ccc4c(c3)Nc3ncnc(N5CCOCC5)c3CO4)CC2)C1

>  <IC50>
~8.91 µM

$$$$

// C=CC(=O)N1CC(N2CCC(c3cc4c(cn3)OCc3c(ncnc3N3CCOCC3)N4)CC2)C1 : IC50 value = > 10 µM

// C=CC(=O)N1CC(N2CC(c3cc(C)c4c(c3)Nc3ncnc(-c5cnn(C)c5)c3[C@H](C)O4)C2)C1 (single isomer, unassigned) : IC50 value = > 10 µM

// C=CC(=O)N1CCC(N2CC(c3cc(C)c4c(c3)Nc3ncnc(N5CCS(=O)(=O)CC5)c3[C@H](C)O4)C2)CC1 (single isomer, unassigned) : IC50 value = ~6.61 µM
